The entries that follow carry IC50 values tested on Protein deacetylase HDAC6 (Homo sapiens), drawn from several published reports.

Below, each entry is followed by its recorded IC50 result.
>>> assay_value("CC(C)(C)OC(=O)Nc1ccc2cc(C(=O)NO)cnc2c1")
"< 100 nM"
>>> assay_value("C[C@@H](NC(=O)c1ccc(C(=O)C(F)(F)F)s1)c1ccccc1")
"350 nM"

Here's the next entry for you.
Supply IC50 measured with Protein deacetylase HDAC6 (Homo sapiens) for COc1ccc(-c2ccc(S(=O)(=O)N3CCc4cc(C(=O)NO)ccc4C3)cc2)cc1 .
50 to 100 nM

====

The entries that follow carry IC50 values tested on Protein deacetylase HDAC6 (Homo sapiens, UniProt Q9UBN7), drawn from several published reports.

Below, each entry is followed by its recorded IC50 result.
>>> assay_value("Cc1cccc(C)c1NC(=O)CN1CCc2cc(C(=O)NO)ccc2C1")
"50 to 100 nM"
>>> assay_value("Cc1noc(C)c1CC(=O)N1CCc2cc(C(=O)NO)sc2C1")
"50 to 100 nM"
>>> assay_value("COc1ccc(C(=O)N[C@H](C)c2ccc(C(=O)NO)s2)cc1")
"< 100 nM"
>>> assay_value("CC1(C)CN(C(=O)c2ccccn2)Cc2cc(C(=O)NO)sc21")
"> 1000 nM"
>>> assay_value("CCCCc1nc2cc(/C=C/C(=O)NO)ccc2n1CCN(C)C")
"8.4 nM"

Give IC50 for the following molecule: O=C(NO)c1cnc(NC2(c3ccccc3)CCN(c3ccccc3)CC2)nc1
2.1 nM

Give IC50 for the following molecule: O=C(NO)c1ccc2c(c1)CCN(C(=O)C1CC=CCC1)C2 (stereo not drawn)
100 to 500 nM

Give IC50 for the following molecule: O=C(NO)c1ccc2c(c1)CCN(C(=O)Nc1ccc3c(c1)OCO3)C2
< 50 nM

Give IC50 for the following molecule: O=C(NO)c1cnc(NC2(c3ccccc3)CCN(C(=O)Nc3ccc(F)cc3)CC2)nc1
2 nM

====

The entries that follow carry pIC50 values tested on Protein deacetylase HDAC6 (Homo sapiens), drawn from several published reports.
pIC50: −log10 of the molar value.

>>> assay_value("O=C(NO)c1cnc(NC2(c3ccccc3)CCN(S(=O)(=O)c3ccc(Cl)cc3)CC2)nc1")
8.30
>>> assay_value("CC(C)[C@H](C(=O)N1CCC(Nc2ncc(C(=O)NO)cn2)(c2ccccc2)CC1)c1ccccc1 (stereo in doubt)")
8.30
>>> assay_value("O=C(NO)c1cc2c(s1)CN(C(=O)c1ccco1)CC2")
"> 7.30"
>>> assay_value("O=C(NO)c1ccc2c(c1)CCN(C(=O)CC1CC1)C2")
"6.30 to 7.00"
>>> assay_value("CN(Cc1ccc2c(c1)CCC(C(=O)NO)=C2)CC12CC3CC(CC(C3)C1)C2")
7.84
>>> assay_value("O=C(NO)c1ccc2c(c1)CCN(CCCOc1ccccc1)C2")
"6.30 to 7.00"
>>> assay_value("Cc1c(C(=O)NO)sc2c1CN(C(=O)c1ccc(-c3ccccc3)cc1)CC2")
"> 7.30"
>>> assay_value("CC(NC(=O)c1cc2ccccc2s1)c1ncc(C(=O)NO)s1 (stereo not drawn)")
"> 7.00"
>>> assay_value("CCOC(=O)N1CCC(Nc2ncc(C(=O)NO)cn2)(C(C)C)CC1")
8.40
>>> assay_value("O=C(NO)c1cc2c(s1)CN(S(=O)(=O)c1ccc(C(F)(F)F)cc1)CC2")
"> 7.30"

Supply pIC50 measured with Protein deacetylase HDAC6 (Homo sapiens) for Cc1nc(C)c(CC(=O)N2CCc3cc(C(=O)NO)sc3C2)s1 .
7.00 to 7.30

Supply pIC50 measured with Protein deacetylase HDAC6 (Homo sapiens) for CC(=O)Nc1cc(NC(C)=O)cc(C(=O)N2CCCc3cc(C(=O)NO)ccc3C2)c1 .
6.30 to 7.00

Supply pIC50 measured with Protein deacetylase HDAC6 (Homo sapiens) for CC(C)(C(=O)N1Cc2ccc(C(=O)NO)cc2C1)c1ccc(Cl)cc1 .
> 7.30

Supply pIC50 measured with Protein deacetylase HDAC6 (Homo sapiens) for Cc1c(C(=O)N[C@H](C)c2ccc(C(=O)NO)s2)sc2ccccc12 .
> 7.00

Supply pIC50 measured with Protein deacetylase HDAC6 (Homo sapiens) for O=C(CCCCCCN(c1cnccn1)c1ccn2nccc2n1)NO .
≥ 7.00

Supply pIC50 measured with Protein deacetylase HDAC6 (Homo sapiens) for O=C(NO)c1ccc2c(c1)CCN(C(=O)COc1ccccc1)C2 .
7.00 to 7.30

Supply pIC50 measured with Protein deacetylase HDAC6 (Homo sapiens) for CC(=O)Nc1ccc(Oc2cccc(Cl)c2)c(/C=C/C(=O)NO)c1 .
< 5.00

Supply pIC50 measured with Protein deacetylase HDAC6 (Homo sapiens) for O=C(NO)c1cnc2ccc(Nc3ccncc3)cc2c1 .
6.30 to 7.00
